experimental_readout: melting point

Please review the following examples before continuing.
>>> print(df.to_string())
                                   molecule    test_result
0  CON(c1ccc([N+](=O)[O-])cc1C#N)S(=O)(=O)c1ccc(C)cc1  148 to 150 °C
1  COc1cc(OC)c2c(=O)cc(S)oc2c1C1CCN(C)CC1O (centres undefined)  184 to 185 °C
2  CC[C@@H](c1ccccc1)N(Cc1ccc(C(=O)OC)cc1)S(=O)(=O)c1ccc(C(F)(F)F)cc1    70 to 72 °C
3  Cc1cnc(C(=O)c2[nH]c3cc(Cl)ccc3c2CC(=O)O)cc1C  226 to 228 °C
4      Cc1ccc(C(=O)O)c(OC(=O)C=Cc2ccccc2)c1  156 to 157 °C
5  Cc1nc2ccccc2nc1S(=O)Cc1ccccc1N(C)C (centres undefined)    68 to 70 °C
6  Oc1cc(C(F)(F)F)ccc1-c1cc(Oc2ccc3cccnc3c2)ncn1  210 to 212 °C
7  CCCCn1c(=O)c2nn(S(=O)(=O)c3c(Cl)cc(Cl)cc3Cl)cc2n(CCCC)c1=O    89 to 92 °C

Shifting focus to the molecule that follows.
Query :: Specify melting point for COC(=O)C(CCCCNC(=O)c1ccc(NC(=O)OCc2ccccc2)cc1)n1c2ccccc2c2ccccc21 (centres undefined) and stop.
Result :: 87 to 88 °C

----------
Please respond with reported melting point for every item in the list.

Please review the following examples before continuing.
>>> df
                                chem_smiles  experimental_readout    test_result
0  CCOC(=O)c1cn(C(c2ccccc2)(c2ccccc2)c2ccccc2)nn1         melting point  201 to 203 °C
1     COc1ccc(Nc2cccc(Cl)c2[N+](=O)[O-])cc1         melting point    73 to 74 °C
2             CCC(=O)Nc1cccc(NC(=O)C2CC2)c1         melting point  185 to 186 °C
3     COc1cc2nc(-c3ccc(Cl)cc3)nc(Cl)c2cc1OC         melting point  204 to 206 °C

Shifting focus to the compound that follows.
Query :: Specify melting point for COc1ccc(C(=O)Nc2c(Cl)cc(N)cc2Cl)cc1OC1CCCC1 and stop.
Result :: 170 to 172 °C

----------
Please respond with reported melting point for every item in the list.

Please review the following examples before continuing.
>>> df
                                   compound    test_result
0   Cc1cn(C)c2c1N(C(=O)CN(C)C)c1ccccc1NC2=O  219 to 220 °C
1  CNC1(c2ccccc2)CC=C(c2[nH]c3ccccc3c2CCc2ccncc2)CC1 (configuration not stated)  168 to 172 °C
2             COC(=O)c1cc2cc(OC)c(OC)cc2cn1         215 °C
3            Cc1ccc2c(=O)n3nc(C)cc3[nH]c2n1       > 300 °C
4  COC(=O)c1ccc2oc(CCCCCc3cc4cc(C(=O)OC)ccc4o3)cc2c1    83 to 85 °C

For the 8 compounds below, give their melting point values.
1. OCCCSCCSCCCO
2. N#CC(Cl)Cc1ccccc1C(=O)O (configuration not stated)
3. COc1ccc(C(C)=O)c2cccc(S(=O)(=O)N(C)C)c12
4. CCOC(=O)Cc1nc(-c2ccc(Cl)cc2)oc1-c1cccs1
5. O=C1CCCc2cc(OCCOc3ccccc3)ccc21
6. CCCCC1=NC(=NOC(=O)NC)SC1(C)C
7. CSC(=C(C#N)C#N)N(C)N=Cc1ccccc1
8. CSc1ccccc1C1CCN(CCCCNC(=O)c2ccc(-c3ccc(C(F)(F)F)cc3)cc2)CC1

Result ::
1: 52 °C; 2: 116 to 117 °C; 3: 124 to 127 °C; 4: 119 to 120 °C; 5: 109 to 113 °C; 6: 128 to 130 °C; 7: 159 to 160 °C; 8: 191 to 192 °C

For the 4 compounds below, give their melting point values.
1. O=C(CN1CCCCC1)Nc1ccc2c(c1)C(=O)c1cc(NC(=O)CN3CCCCC3)ccc1C2=O
2. CCCCOc1c(N(C)C(=O)OC(C)(C)C)n(CC(C)C)c(=O)c2ccc(-n3cnnn3)cc12
3. Cc1ccc(Cc2cnc(NCCSCc3cc(CN(C)C)ccn3)[nH]c2=O)cn1
4. CC(C)c1ccc(Cl)nn1

Result ::
243 °C
199 to 200 °C
128 to 130 °C
32 to 33 °C

For the 5 compounds below, give their melting point values.
1. Nc1cccc(CN2CCN(C(c3ccccc3)c3ccccc3)CC2)c1
2. Cc1c(-c2cccnc2)n(CCCCCC(N)=O)c2ccc(Cl)cc12
3. O=C1c2ccccc2-c2c1c1ccccc1c(=O)n2CCCCNS(=O)(=O)c1ccc(Br)cc1
4. CC(C)(C)c1cc(C(=O)N2CCN(c3ccc([N+](=O)[O-])cc3)CC2)cc(C(C)(C)C)c1O
5. O=C(O)c1cc(-c2ccccc2)c2sccc2c1

Result ::
1. 104 to 106 °C
2. 137 to 140 °C
3. 176 to 177 °C
4. 160 °C
5. 234 °C
